Listed here: items and their measured self-cleavage.
B1: HDV Ribozyme (parent)
chain: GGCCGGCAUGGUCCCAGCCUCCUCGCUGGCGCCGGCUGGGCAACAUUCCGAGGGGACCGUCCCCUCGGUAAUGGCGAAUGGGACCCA

Variants of: B1
PROTOCOL TEXT: self-cleavage, relative activity (ratio to wild type); higher = more cleavage; co-transcriptional
ASSAY ENDPOINT: self-cleavage

GGCCGGCAUGGUCCCAGCCUCCUCGCUGGCGCCGACUGGGCAACAUUCCGAGGGGACCGUCCCCUCGGUAAUGGCGAAUGGGAGCCA [G35A C84G] :: 0.45
GGCCGGCAUGGUCCCAGCCUCCUCGCUGGCGCCGGCUCGGCAACAUUCCGAGGGGACCGUCCCCUCGGUAAUGGCGAAUGGGGCCCA [G38C A83G] :: 0.201
GGCCGGCAUGGUCCCAGCCUCCUGGAUGGCGCCGGCUGGGCAACAUUCCGAGGGGACCGUCCCCUCGGUAAUGGCGAAUGGGACCCA [C24G C26A] :: 0.886
UGCCGGCAUGGUCCCAGCCUCCUCGCCGGCGCCGGCUGGGCAACAUUCCGAGGGGACCGUCCCCUCGGUAAUGGCGAAUGGGACCCA [G1U U27C] :: 0.26
GGCCCGCAUGGUCCCAGCCUCCUCGCUGGCGCCGGCUGGGCAACAUUGCGAGGGGACCGUCCCCUCGGUAAUGGCGAAUGGGACCCA [G5C C48G] :: 0.0755
GGCCGGCAUGGUCCCAGCCACCUCGCUGGCGCCGGCUGGGCAACAUUCCGAGGGGACCGUCCCCUCGGUAAUCGCGAAUGGGACCCA [U20A G73C] :: 0.0615
GGCCGGAAUGGUCCCAGCCUCCUCGCUGGCGCCGGCUGGGCAACAUUCCGAGGGGACCGUCCCCUCAGUAAUGGCGAAUGGGACCCA [C7A G67A] :: 0.315
GGCCGGCUUGGUCCCAGCCUCCUCGCUGGCGCCGUCUGGGCAACAUUCCGAGGGGACCGUCCCCUCGGUAAUGGCGAAUGGGACCCA [A8U G35U] :: 0.262
GGCCGGUAUGGUCCCAGCCUCCUCGCUGGCGCCGGCUGGGCAACAUUCCGAGGGGACCGUCCCCUCGGUAAUGACGAAUGGGACCCA [C7U G74A] :: 0.204
GGCCGGCAUUGUCCCAGCCUCCUCGCUGGCGCCGGCUGGCCAACAUUCCGAGGGGACCGUCCCCUCGGUAAUGGCGAAUGGGACCCA [G10U G40C] :: 0.313
GGCCGGCAUGGUCCCAGCCUCCUCGCUGGCGCCGGCUGGGCAACAUUCCGAGGGGACCGUCCCCUCGGUAAUGGCGAAAGGUACCCA [U79A G82U] :: 0.374
GGCCGCCAUGGUCCCAGCCUCCUCGCUGGCGCCGGCUGGGCAACAUUCCGAGGGGACCGUCCCCUCGGUAAUGGCCAAUGGGACCCA [G6C G76C] :: 0.364
GGCCGGCAUGGUCCCAGCCUGCUCGCUGGCGCCGGCUGGGCAACAUUCCGAGGGGACCGCCCCCUCGGUAAUGGCGAAUGGGACCCA [C21G U60C] :: 0.0489
GGUCGGCAUGGUCCCAGCCGCCUCGCUGGCGCCGGCUGGGCAACAUUCCGAGGGGACCGUCCCCUCGGUAAUGGCGAAUGGGACCCA [C3U U20G] :: 0.125
GGCCGGCAUGGUCCCAGCCUCCUCGCUGGCGCCGGCUGGGCAACAUUCCGAGGGGACCGUCCCCUCGGUGAGGGCGAAUGGGACCCA [A70G U72G] :: 0.582
GGCCGGCAUGGUCCCAGCCUCCUCGCUAGCGCCGGCUGGGCAACAUUCCGAGGGGACGGUCCCCUCGGUAAUGGCGAAUGGGACCCA [G28A C58G] :: 0.0369
GGCCGGCAUGGUCCCAGCCUCCUCGGUGGCGCCGGCUGGGCAACAAUCCGAGGGGACCGUCCCCUCGGUAAUGGCGAAUGGGACCCA [C26G U46A] :: 0.731
